assay.overview: Selectivity index, ratio of CC50 for mock-infected human MT4 cells to EC50 for HIV1 3B infected in human MT4 cells
Format: toxicity, cell-based
experimental.setup: MT4 cells (mock-infected and HIV1 3B infected), read-out: Ratio CC50/EC50
Each entry below carries its reported selectivity ratio.
Simply state the number, no unit and no words.

* Cc1cc(C#N)cc(C)c1Oc1nc(Nc2ccc(C#N)nc2)nc2c1ccn2COCC[Si](C)(C)C | 463

Now examine the next entry.
Give the measured selectivity ratio of "Cc1cc(C=O)cc(C)c1Oc1nc(Nc2ccc(C#N)cn2)nc2c1CCCC2" .
1250

* * *

assay.overview: Selectivity index, ratio of CC50 for mock-infected human MT4 cells to EC50 for HIV1 RES056 infected in human MT4 cells
Type: toxicity, cell-based
experimental.setup: MT4 cells (mock-infected and HIV1 RES056 infected), read-out: Ratio CC50/EC50
value.kind: selectivity ratio
Quick one: just the number, no unit, thanks!

- Cc1cc(C#N)cc(C)c1Oc1nc(Nc2ccc(CC#N)cc2)nc2c1CCCC2: 4

For "Cc1cc(/C=C/C#N)cc(C)c1Oc1nc(Nc2ccc(CC#N)cc2)nc2c1CCCC2" , what is its reported selectivity ratio?
112

* * *

# Lookup of reported selectivity ratio keyed by entry
assay.overview: Selectivity index, ratio of CC50 for mock-infected human MT4 cells to EC50 for HIV1 3B infected in human MT4 cells
Format: toxicity, cell-based
experimental.setup: MT4 cells (mock-infected and HIV1 3B infected), read-out: Ratio CC50/EC50

In the examples that follow, each entry is paired with its recorded selectivity ratio.
* Cc1cc(C#N)cc(C)c1Oc1nc(Nc2ccc(C#N)cn2)nc2c1ccn2COCC[Si](C)(C)C | < 1
* Cc1cc(C#N)cc(C)c1Oc1nc(Nc2ccc(C#N)nc2)nn2cccc12 | 9830
* Cc1cc(C#N)cc(C)c1Oc1nc(Nc2ccc(OC(F)(F)F)cc2)nc2c1CCCC2 | > 3410
* Cc1cc(C#N)cc(C)c1Oc1nc(Nc2ccc(C#N)nc2)nc2c1CCCC2 | 228
* Cc1cc(/C=C/C(N)=O)cc(C)c1Oc1nc(Nc2ccc(C#N)cc2)nn2cccc12 | 1590
* Cn1c(Cn2ccc(C(F)(F)F)c(Oc3cc(Cl)cc(C#N)c3)c2=O)n[nH]c1=O | > 21900

For the molecule shown here, "Cc1cc(/C=C/C#N)cc(C)c1Oc1nc(Nc2ccc(C#N)nc2)nc2c1CCCC2" , give the reported selectivity ratio.
1160

What do you get for "Cc1cc(/C=C/C#N)cc(C)c1Oc1nc(Nc2ccc(C#N)cc2)nc2c1CCCC2" ?
513

Another molecule: "Cc1cc(C#N)cc(C)c1Oc1nc(Nc2ccc(C#N)cc2)nc2c1ccn2CC(=O)N1CCOCC1"
297

Another molecule: "Cc1cc(/C=C/C#N)cc(C)c1Oc1nc(Nc2ccc(C#N)cc2)nn2cccc12"
395

* * *

assay.overview: Selectivity index, ratio of CC50 for mock-infected human MT4 cells to EC50 for HIV1 3B infected in human MT4 cells
Type: toxicity, cell-based
experimental.setup: MT4 cells (mock-infected and HIV1 3B infected), read-out: Ratio CC50/EC50
A collection of compounds and their measured selectivity ratio
A bare number is all that is needed in reply.

Some solved entries appear below for comparison.
* Cc1cc(C=O)cc(C)c1Oc1nc(Nc2ccc(C#N)cc2)nc2c1CCCC2 | 169
* Cc1cc(C#N)cc(C)c1Oc1nc(Nc2ccc(CC#N)cc2)nc2c1CCCC2 | 385
* Cc1cc(/C=C/C#N)cc(C)c1Oc1nc(Nc2ccc(CC#N)cc2)nc2c1CCCC2 | 2730

API: the following record is the query input.
Given the entry "Cc1cc(C#N)cc(C)c1Oc1nc(Nc2ccc(C#N)cc2)nc2c1ccn2COCC[Si](C)(C)C" , report its measured selectivity ratio.
4
